Tested on: SF-268 CNS
Test: NCI-60 one-dose screen, 48 h (100 = growth as untreated, 0 = no growth, -100 = all killed)
Conditions: 10 µM unless noted
About 83,000 compounds went through this panel and 20% of them were active in at least one assay; those are over-represented in the sample as a whole. Activity calls are given as the source filed them. The calls were made as follows: active = growth percent below 10; inactive = the rest.
readout_name: growth

For orientation, consider the following solved cases.
>>> test_result("CC(C)(C)NCCC(O)c1cc(C(F)(F)F)nc2c(C(F)(F)F)cccc12 (stereo not drawn)")
"71% (inactive)"
>>> test_result("CS(=O)CC(=N\\O)/C(CS(C)=O)=N\\O (stereo not drawn)")
"98.5% (inactive)"
>>> test_result("CC(O)C(F)(F)C(F)(F)C(F)(F)F (stereo not drawn)")
"115% (inactive)"
>>> test_result("Cc1ccc(N2C(=O)c3cccc4c(N)c(S(=O)(=O)O)cc(c34)C2=O)cc1")
"108% (inactive)"
>>> test_result("Cc1ccccc1CC(N)C(=O)O (stereo not drawn)")
"101% (inactive)"

Reported growth, compound COC1(OC)C2(Cl)C(Cl)=C(Cl)C1(Cl)C1COCC12 (stereo not drawn) : ____
108% (inactive)

Follow-up entry: Clc1ncnc2nc[nH]c12
95.8% (inactive)

###

Test system: SF-539 CNS
Experiment: NCI-60 one-dose screen, 48 h
Settings: 10 µM unless noted
Compounds without any hit were thinned out: in the full panel of roughly 83,000, 20% have a hit. Calls of active or inactive are those of the source. Rule for the calls: active = growth percent below 10; inactive = the rest.
Result category, one only: active, inactive

Assay outcome for NC(=O)N1CCOCC1 : what was it?
inactive

Follow-up entry: COc1c(CNC(=O)CCl)cc2[nH]c(C)cc2c1CNC(=O)CCl
inactive

###

Test system: HOP-92 NSCLC
Experiment: NCI-60 one-dose screen, 48 h
Conditions: 10 µM unless noted
Compounds without any hit were thinned out: in the full panel of roughly 83,000, 20% have a hit. The source made the active and inactive calls. The calls were made as follows: active = growth percent below 10; inactive = the rest.
Result category, one only: y for active, n for inactive

Assay outcome for C[C@H](CCC[C@H](C)OS(=O)(=O)c1ccccc1)OS(=O)(=O)c1ccccc1 : what was it?
n

###

Tested on: SK-OV-3 ovarian
Experiment: NCI-60 one-dose screen, 48 h (100 = growth as untreated, 0 = no growth, -100 = all killed)
Conditions: 10 µM unless noted
The panel holds about 83,000 compounds, 20% with a hit somewhere; the sample as a whole holds those more often. The source made the active and inactive calls. Rule for the calls: active = growth percent below 10; inactive = the rest.
Measured growth of individual entries

>>> test_result("Cc1ccnc(Nc2nc3ccccc3[nH]2)n1")
"101% (inactive)"

Reported growth, compound COc1cccc(C(=O)O)c1OC : ____
91.6% (inactive)

Follow-up entry: CN(C)c1ccc(/C=C/C(=O)c2ccc(NC(N)=O)cc2)cc1
105% (inactive)

Follow-up entry: CCC(C)C1CCC(O)CC1 (configuration not stated)
109% (inactive)

Follow-up entry: CC(=O)NC(CCc1ccc(Cl)c(Cl)c1)c1cccc(O)c(=O)c1 (configuration not stated)
12.7% (inactive)

Follow-up entry: Cc1ccc2[nH]c3ccccc3c2c1
113% (inactive)

Follow-up entry: CC(C)C(C)(C)C(=O)C(C)(C)C(C)(C)C
82.8% (inactive)

###

Test system: TK-10 renal
Assay: NCI-60 one-dose screen, 48 h
Details: 10 µM unless noted
Method: Growth inhibition of the TK-10 human tumor cell line is measured as a screen for anti-cancer activity. Cells are grown in 96 well plates and exposed to the test compound for 48 hours. Compounds are tested at a single concentration, which is 10^-5 M for most compounds. The reported endpoint is percent growth (GI% or GIPRCNT), where numbers from 0 - 100% represent growth inhibition, and numbers from -100% - 0 represent cell death. For example, a value of 40 represents 60% growth inhibition. […]
Compounds without any hit were thinned out: in the full panel of roughly 83,000, 20% have a hit. Calls of active or inactive are those of the source. How the source made its calls: active means growth percent below 10; inactive means the rest.
Result category, one only: Y = active, N = inactive

Some solved entries appear below for comparison.
>>> cat("O=C1NC(=O)/C(=C\\c2ccncc2)N1")
"N"
>>> cat("N#CC1(O)CCCCC1")
"N"

Assay outcome for O=C(O)C1CSC(c2ccccc2)N1 (stereo not drawn) : what was it?
N

Follow-up entry: CCOC(=O)CSCCC#N
N

Follow-up entry: O=C(O)c1ccc(OCc2ccccc2)cc1
N

Follow-up entry: COC1OC(COC(C)=O)C(OC(C)=O)C(OC(C)=O)C1OC(C)=O (stereo not drawn)
N

Follow-up entry: CN(C)c1ccc(/C=C/C(=O)c2ccc(NC(N)=O)cc2)cc1
N

Follow-up entry: Cc1cccc(C)c1NC(=S)/N=C\c1c(O)[nH]c(=O)[nH]c1=O
N

Follow-up entry: CC(=O)N(C(C)=O)c1ccc(C)cc1
N

Follow-up entry: Nc1ccc2c(c1)Cc1cc(N)c(N)cc1-2
N

Follow-up entry: Oc1cccnc1CN1CCCC1
N

Follow-up entry: ClCC(Cl)C1CCC(Cl)C(Cl)C1 (stereo not drawn)
N

Follow-up entry: C(=C\c1ccncc1)/c1ccncc1
N

Follow-up entry: Cc1ccc(NC(=O)c2ccccc2Cl)cc1
N
